Provide the reported pIC50 of each item.
Biological target: UniProt:P02766
Assay: FITC-T4 TTR-binding assay, initial (original) method
Conditions: initial method; 110 nM FITC-T4, 30 nM TTR; read-out: IC50 competing with FITC-T4 for binding to TTR
Give bare numbers, as −log10 of the molar value.

Answered examples (4):
compound: O=S(=O)(O)C(F)(F)C(F)(F)C(F)(F)C(F)(F)C(F)(F)C(F)(F)C(F)(F)C(F)(F)F
pIC50: 6.68
//
compound: O=C(O)C(F)(F)C(F)(F)C(F)(F)C(F)(F)C(F)(F)C(F)(F)C(F)(F)F
pIC50: 6.55
//
compound: Cc1cccc2[nH]nnc12
pIC50: 4.63
//
compound: O=C(O)C(F)(OC(F)(F)C(F)(F)C(F)(F)F)C(F)(F)F (stereo not drawn) [GenX, Hexafluoropropylene oxide dimer acid]
pIC50: 4.50

# batch: return pIC50 for each of the 2 compounds below
1. O=C(O)C(F)(F)C(F)(F)C(F)(F)C(F)(F)C(F)(F)F
2. O=S(=O)(O)C(F)(F)C(F)(F)C(F)(F)C(F)(F)F

Result:
1: 5.59; 2: 5.08
